biological target: PDE4 enzyme; test: Inhibition of Phosphodiesterase Enzymes (PDE4), [3H]cAMP hydrolysis; type: biochemical; conditions: Table 1; read-out: IC50 values PDE4
recorded.metric: pIC50
Conceptually, pIC50 converts a concentration in mol/L into minus its log10.

Q: Complete the entry with pIC50 for COc1ccc(C(=O)Nc2c(Cl)cncc2Cl)c2c1oc1ccccc12 [Example 1]
A: 9.10

====

biological target: PDE4 enzyme; test: Inhibition of Phosphodiesterase Enzymes (PDE4), [3H]cAMP hydrolysis; type: biochemical; conditions: PDE4 enzyme, 1 μM cAMP and 3H cAMP, 34° C.; read-out: IC50
Reported pIC50 by item:
By convention, pIC50 is the negative base-10 log of a molar concentration.

See these solved cases before continuing.
                                item_smiles  endpoint_result
0  COc1ccc(C(=O)Nc2ccncc2)c2c3cc(Cl)ccc3n(Cc3ccc(F)cc3)c12             6.79
1     COc1ccc(C(=O)Nc2ccncc2)c2c1oc1ccccc12             8.06
2  COc1ccc(Cn2c3ccc(Cl)cc3c3c(C(=O)Nc4c(Cl)cncc4Cl)ccc(OC)c32)cc1             8.09
3  COc1ccc(C(=O)Nc2c(Cl)c[n+]([O-])cc2Cl)c2c3cc(Cl)ccc3n(Cc3ccc(F)cc3)c12             7.39
4  O=C(Nc1c(Cl)cncc1Cl)c1ccc(OCC2CC2)c2oc3ccccc3c12             6.96

Q: Give pIC50 for `O=C(Nc1c(Cl)cncc1Cl)c1ccc(OC(F)F)c2oc3ccc(C(F)(F)F)cc3c12`
A: 8.92

Q: Indicate the recorded pIC50 value for this molecule: `COc1ccc(C(=O)Nc2c(Cl)cncc2Cl)c2c1oc1ccc([N+](=O)[O-])cc12`
A: 8.55

Q: Could you please provide reported pIC50 for `COc1ccc(C(=O)Nc2ccncc2)c2c3ccccc3n(Cc3ccc(F)cc3)c12` ? Thanks!
A: 6.41

====

tested on: PDE4; test: Cell Based Assay for PDE4 Inhibition: cAMP elevation in whole U937 cells; conditions: 1 μM PGE1, normalized over PGE1
recorded.metric: EC50 (nM)
Report only the number, with the unit nM understood.

Some compounds with recorded EC50:
>>> df
                                item_smiles  endpoint_result
0  COc1ccc(C(=O)Nc2c(Cl)cncc2Cl)c2c1oc1ccc([N+](=O)[O-])cc12             87.9
1  COc1ccc(C(=O)Nc2c(Cl)cncc2Cl)c2c1oc1ccc(N)cc12             47.5
2  O=C(Nc1c(Cl)c[n+]([O-])cc1Cl)c1ccc(OC(F)F)c2oc3ccc(C(F)(F)F)cc3c12              128
3  COc1ccc(C(=O)Nc2c(Cl)c[n+]([O-])cc2Cl)c2c1oc1ccccc12             23.8

Q: Report EC50 for `COc1ccc(C(=O)Nc2c(Cl)cncc2Cl)c2c1oc1ccc(C(F)(F)F)cc12`
A: 17.6

====

molecular target: PDE 2 (cGP-stimulated) (Homo sapiens, UniProt O00408); assay: Activity against other Phosphodiesterase enzymes: PDE 2; settings: read-out: IC50 values PDE2
Sequence (O00408 whole entry): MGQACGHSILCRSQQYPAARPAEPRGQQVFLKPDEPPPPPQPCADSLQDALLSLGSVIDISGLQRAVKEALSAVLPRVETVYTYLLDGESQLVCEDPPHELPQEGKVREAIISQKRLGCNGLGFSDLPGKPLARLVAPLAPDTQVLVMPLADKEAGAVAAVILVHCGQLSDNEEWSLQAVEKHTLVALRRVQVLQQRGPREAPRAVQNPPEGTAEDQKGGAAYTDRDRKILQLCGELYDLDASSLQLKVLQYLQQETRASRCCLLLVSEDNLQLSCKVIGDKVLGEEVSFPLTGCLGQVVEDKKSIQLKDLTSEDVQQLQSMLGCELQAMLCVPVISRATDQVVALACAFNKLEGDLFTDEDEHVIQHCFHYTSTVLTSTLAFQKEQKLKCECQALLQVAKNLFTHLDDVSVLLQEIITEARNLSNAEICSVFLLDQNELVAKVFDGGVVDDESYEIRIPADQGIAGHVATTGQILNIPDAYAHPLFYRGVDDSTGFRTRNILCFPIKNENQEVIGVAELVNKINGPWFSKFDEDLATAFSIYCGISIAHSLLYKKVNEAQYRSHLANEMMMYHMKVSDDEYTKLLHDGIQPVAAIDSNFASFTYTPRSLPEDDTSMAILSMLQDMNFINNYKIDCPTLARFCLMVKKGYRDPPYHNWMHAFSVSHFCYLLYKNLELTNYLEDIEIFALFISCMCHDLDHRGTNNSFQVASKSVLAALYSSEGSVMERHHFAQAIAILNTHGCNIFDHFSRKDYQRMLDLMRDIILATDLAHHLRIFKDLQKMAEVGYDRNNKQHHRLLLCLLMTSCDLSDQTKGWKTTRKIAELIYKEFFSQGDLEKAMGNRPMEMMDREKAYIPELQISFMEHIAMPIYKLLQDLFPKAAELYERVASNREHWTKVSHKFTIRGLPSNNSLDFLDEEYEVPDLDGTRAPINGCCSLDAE
recorded.metric: pIC50
Interpret pIC50 as the negative base-10 log of the concentration measured in mol/L.

Q: Provide measured pIC50 value, entry: `COc1ccc(C(=O)Nc2c(Cl)cncc2Cl)c2c1oc1ccccc12`
A: 4.16

====

Entries annotated with measured melting point

                                item_smiles  recorded_metric  endpoint_result
0  O=C(Nc1c(Cl)cncc1Cl)c1ccc(OC(F)F)c2oc3ccc([N+](=O)[O-])cc3c12    melting point         > 270 °C
1  COc1ccc(C(=O)Nc2c(Cl)cncc2Cl)c2c1oc1ccc(Cl)cc12    melting point           300 °C
2  COc1ccc(C(=O)Nc2c(Cl)cncc2Cl)c2c1oc1ccccc12    melting point           302 °C

Q: Supply melting point value. Item: `O=C(Nc1ccncc1)c1ccc(OC(F)F)c2oc3ccc(C(F)(F)F)cc3c12`
A: 228 °C

====

biological target: PDE4 enzyme; assay: Inhibition of Phosphodiesterase Enzymes (PDE4), [3H]cAMP hydrolysis; assay type: biochemical; settings: PDE4 enzyme, 1 μM cAMP and 3H cAMP, 34° C.; read-out: IC50
This listing pairs compounds with measured pIC50.
Please note pIC50 is a logarithmic value: minus log10 of concentration in mol/L. Answer with that number alone.

Past entries and their recorded results:
>>> df
                                item_smiles  recorded_metric  endpoint_result
0  COc1ccc(C(=O)Nc2c(Cl)cncc2Cl)c2c3cccc(Cl)c3n(Cc3ccc(F)cc3)c12            pIC50             7.10
1  O=C(Nc1cccnc1)c1ccc(OC(F)F)c2oc3ccccc3c12            pIC50             6.98
2  CCOc1ccc(C(=O)Nc2c(Cl)cncc2Cl)c2c1oc1ccccc12            pIC50             7.06
3  COc1ccc(NS(=O)(=O)c2ccc(OC)c3sc4ccc(S(=O)(=O)N(C)C)cc4c23)cc1            pIC50             7.43
4  COc1ccc(C(=O)Nc2c(Cl)cncc2Cl)c2c1oc1ccc(I)cc12            pIC50             8.34

Q: Provide pIC50, system PDE4 enzyme, entry `O=C(Nc1ccncc1)c1ccc(OC(F)F)c2oc3ccccc3c12`
A: 7.80

Q: Give measured pIC50 for `COc1ccc(C(=O)Nc2ccncc2)c2c1[nH]c1ccccc12` (PDE4 enzyme).
A: 6.89

Q: Answer with pIC50 of `COc1ccc(C(=O)Nc2cccnc2Cl)c2c1oc1ccccc12` measured for PDE4 enzyme.
A: 6.47

Q: Provide pIC50, system PDE4 enzyme, entry `COc1ccc(C(=O)Nc2ccncc2)c2c1oc1ccc(I)cc12`
A: 7.43

Q: Answer briefly: pIC50 recorded on PDE4 enzyme for `O=C(Nc1c(Cl)cncc1Cl)c1ccc(OC(F)F)c2oc3ccccc3c12`
A: 8.60

Q: Report its pIC50 with PDE4 enzyme as the test system: `COc1ccc(C(=O)Nc2ccncc2)c2c1oc1ccc(C(F)(F)F)cc12`
A: 8.04

Q: Give pIC50 for this entry on PDE4 enzyme: `COc1ccc(C(=O)Nc2c(Cl)cncc2Cl)c2c1oc1ccc(Cl)cc12`
A: 9.08

====

recorded.metric: melting point

Recorded melting point, per entry:
>>> df
                                item_smiles  endpoint_result
0  COc1ccc(S(=O)(=O)Nc2c(Cl)cccc2Cl)c2c1[nH]c1ccccc12    201 to 205 °C
1  COc1ccc(S(=O)(=O)Nc2c(Cl)cncc2Cl)c2c1oc1ccccc12    242 to 244 °C

Next:
Q: Query melting point for `O=C(Nc1ccc(Cl)cn1)c1ccc(OC(F)F)c2oc3ccccc3c12`
A: 155 to 157 °C

====

Test system: PDE4
Experiment: Cell Based Assay for PDE4 Inhibition: cAMP elevation in whole U937 cells
Conditions: 1 μM PGE1, normalized over PGE1
Method: Cell Based Assay for PDE4 Inhibition: cAMP elevation studies were conducted in whole U937 cells. U937 cells (ATCC) were grown in RPMI medium containing 10% FBS, 1% pen-strep solution, 1% L-glutamine for 48 hrs. […] Lysate was used for cAMP quantitatin by chemiluminescence method (DiscoveRX kits). cAMP values were normalized over PGE1. EC50 values were calculated from dose response curves by nonlinear regression analysis using PRISM software.
recorded.metric: EC50

Record excerpt, results attached:
                                   compound  test_system  recorded_metric  endpoint_result
0  COc1ccc(C(=O)Nc2c(Cl)cncc2Cl)c2c1oc1ccc(I)cc12 [Example 45]         PDE4             EC50         > 300 nM
1  COc1ccc(C(=O)Nc2ccncc2)c2c1oc1ccc(C(F)(F)F)cc12 [Example 11]         PDE4             EC50         > 220 nM

Next compound, please.
Q: Recall and state the measured EC50 for COc1ccc(C(=O)Nc2cc[n+]([O-])cc2)c2c1oc1ccccc12 [Example 4] .
A: > 300 nM

====

molecular target: PDE4 enzyme; assay: Inhibition of Phosphodiesterase Enzymes (PDE4), [3H]cAMP hydrolysis; format: biochemical; conditions: PDE4 enzyme, 1 μM cAMP and 3H cAMP, 34° C.; read-out: IC50
recorded.metric: IC50 (nM)
Numbers only here, please. The scale is nM.

These recorded examples may help you get a feel for the data.
>>> print(df.to_string())
                                   compound  endpoint_result
0  COc1ccc(C(=O)Nc2c(Cl)cncc2Cl)c2c3ccccc3n(Cc3ccc(F)cc3)c12 [Example 86]               72
1  O=C(Nc1cc[n+]([O-])cc1)c1ccc(OC(F)F)c2oc3ccccc3c12 [Example 21]             22.6
2  COc1ccc(Cn2c3ccc(Cl)cc3c3c(C(=O)Nc4c(Cl)c[n+]([O-])cc4Cl)ccc(OC)c32)cc1 [Example 98]             39.6
3  COc1ccc(C(=O)Nc2c(Cl)cncc2Cl)c2c1oc1ccc(C#N)cc12 [Example 57]             1.74
4  COc1ccc(C(=O)Nc2c(Cl)cncc2Cl)c2c1oc1ccc(C(F)(F)F)cc12 [Example 9]             1.56
5  COc1ccc(C(=O)Nc2c(Cl)cncc2Cl)c2c3cc(Cl)ccc3n(Cc3ccc(F)cc3)c12 [Example 84]             14.6
6  O=C(Nc1c(Cl)c[n+]([O-])cc1Cl)c1ccc(OC(F)F)c2oc3ccccc3c12 [Example 56]             2.85
7  O=C(Nc1c(Cl)c[n+]([O-])cc1Cl)c1ccc(OC(F)F)c2oc3ccc(C(F)(F)F)cc3c12 [Example 13]             2.54

In the following, a different compound is considered.
Q: Output measured IC50 for this item: O=C(Nc1cccnc1)c1ccc(OCC2CC2)c2oc3ccccc3c12 [Example 29]
A: 351
